EXPERIMENTAL SYSTEM: G-protein coupled receptor 55 (Homo sapiens)
PROTOCOL: GPR55 agonists via beta-arrestin recruitment, primary screen, imaging, U2OS cells, beta-arrestin-GFP redistribution (AID 1961);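 also: U2OS osteosarcoma cells stably expressing GPR55 and beta-arrestin-GFP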
CONDITION DETAILS: at 10 µM
In all, about 290,000 compounds went through this assay and about 140 (0.048%) were called active.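 The calls were made as follows: active = activation above 40% with more than 50 cells counted in the well; inconclusive = wells holding fewer than 50 cells, flagged as toxic or sparse; inactive = the rest.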 The sample holds actives, similar compounds and a random draw of the others, so the mix is not that of the screen.
Pick one and only one: active, inactive

MOLECULE	LABEL
COc1cc(/C=C/C(=O)Oc2coc(CSc3ncccn3)cc2=O)cc(OC)c1OC	inactive
O=C(C1CCCN(S(=O)(=O)c2cccc3nsnc23)C1)N1CCCCCC1 (stereo not drawn)	inactive
COc1cc(C2CC(c3ccccc3)=NN2c2ccccc2)ccc1OCC(=O)O (stereo not drawn)	inactive
O=C(CSc1nnc(CNc2ccc(F)cc2)n1CC1CCCO1)N1CCOCC1 (stereo not drawn)	inactive
Cc1cccc2cc3c(N)c(C(=O)N4CCc5ccccc54)sc3nc12	active

// outcome(item) with item = "COc1ccc(CN2C(=O)c3cccc4cccc(c34)C2=O)cc1"
inactive

// outcome(item) with item = "CCOC(=O)CSc1nc2c([nH]c3ccccc32)c(=O)n1C"
inactive

// outcome(item) with item = C(=C\c1ccco1)/C1=NN(c2ccccc2)C(c2ccco2)C1 (stereo not drawn)
inactive
